# Test system: trypsin
# Assay procedure: in vitro
# Reported conditions: pH 8.2
Peptide text beside a SMILES is read from it.
Outcome measure: remaining at 0.5 h

Molecule	System under test	Assay value
CC[C@H](C)[C@H](NC(=O)CN)C(=O)N[C@@H](Cc1c[nH]c2ccccc12)C(=O)N[C@@H](CCCCN)C(=O)N[C@@H](Cc1ccccc1)C(=O)N[C@@H](CC(C)C)C(=O)N[C@@H](CCCCN)C(=O)N[C@@H](CCCCN)C(=O)N[C@@H](C)C(=O)N[C@@H](CCCCN)C(=O)N[C@@H](CCCCN)C(=O)N[C@@H](Cc1ccccc1)C(=O)N[C@@H](Cc1c[nH]c2ccccc12)C(=O)N[C@@H](CCCCN)C(N)=O [MSI-1] (H-GIWKFLKKAKKFWK-NH2)	trypsin	< 10%

Values were extracted from paper PMC6956804.
